Listing: koff of selected binders
- system.under.test: T1, human α-CGRP 1-37 (WT) (human, C-terminal amide; N-terminal biotin when captured on the SA chip; 125I-labelled in the radioligand assay)
- T1 construct: also called α-human
- T1 peptide: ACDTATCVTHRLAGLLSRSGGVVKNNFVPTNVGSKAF
- method: Biacore, 37°C, Fab over CGRP on SA chip
Give just the number in s⁻¹; leave the unit off.

[[record]]
binder = "G1 variant M21 Fab (Fab, V domains shown, Fab; constant domains as m1) VH: EVQLVESGGGLVQPGGSLRLSCAASGFTFSNYWISWVRQAPGKGLEWVAEIRSESDASATHYAEAVKGRFTISRDNAKNSLYLQMNSLRAEDTAVYYCSAYFDYGLAIQNYWGQGTLVTVSS VL: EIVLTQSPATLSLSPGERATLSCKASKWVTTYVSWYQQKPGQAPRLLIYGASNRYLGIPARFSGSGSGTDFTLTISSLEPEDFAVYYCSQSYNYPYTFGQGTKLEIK"
readout_label = "koff"
value_reported = 0.000142


Prompt: Which koff value is on record for G1 variant M32 Fab (Fab, V domains shown, Fab; constant domains as m1) VH: EVQLVESGGGLVQPGGSLRLSCAASGFTFSNYWISWVRQAPGKGLEWVAEIRSKSDHSATHYAEAVKGRFTISRDNAKNSLYLQMNSLRAEDTAVYYCTVYFDYGLAIQNYWGQGTLVTVSS VL: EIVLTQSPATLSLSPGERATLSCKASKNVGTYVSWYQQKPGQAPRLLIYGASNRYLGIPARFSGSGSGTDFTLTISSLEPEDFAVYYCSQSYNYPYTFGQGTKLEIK ?
Response: 0.000271

Prompt: Which koff value is on record for G1 variant M42 Fab (Fab, V domains shown, Fab; constant domains as m1) VH: EVQLVESGGGLVQPGGSLRLSCAASGFTFSNYWISWVRQAPGKGLEWVAEIRSKSDNSATFYAEAVKGRFTISRDNAKNSLYLQMNSLRAEDTAVYYCTVYFDYGLAIQNYWGQGTLVTVSS VL: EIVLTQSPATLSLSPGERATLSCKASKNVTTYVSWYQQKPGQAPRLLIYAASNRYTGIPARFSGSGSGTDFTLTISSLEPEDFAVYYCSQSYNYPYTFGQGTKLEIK ?
Response: 0.000417

Prompt: Which koff value is on record for G1 variant M74 Fab (Fab, V domains shown, Fab; constant domains as m1) VH: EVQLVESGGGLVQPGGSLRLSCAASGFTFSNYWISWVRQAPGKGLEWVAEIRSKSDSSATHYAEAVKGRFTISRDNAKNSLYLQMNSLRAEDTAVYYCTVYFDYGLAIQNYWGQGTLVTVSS VL: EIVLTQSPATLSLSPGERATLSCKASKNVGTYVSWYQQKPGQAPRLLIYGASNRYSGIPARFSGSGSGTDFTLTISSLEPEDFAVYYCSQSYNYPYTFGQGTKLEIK ?
Response: 0.000597

Prompt: Which koff value is on record for G1 variant M64 Fab (Fab, V domains shown, Fab; constant domains as m1) VH: EVQLVESGGGLVQPGGSLRLSCAASGFTFSNYWISWVRQAPGKGLEWVAEIRSKSDNVATHYAEAVKGRFTISRDNAKNSLYLQMNSLRAEDTAVYYCTVYFDYGLAIQNYWGQGTLVTVSS VL: EIVLTQSPATLSLSPGERATLSCKASKNVGTYVSWYQQKPGQAPRLLIYAASNRYLGIPARFSGSGSGTDFTLTISSLEPEDFAVYYCSQSYNYPYTFGQGTKLEIK ?
Response: 0.00132

Prompt: Which koff value is on record for G1 variant M77 Fab (Fab, V domains shown, Fab; constant domains as m1) VH: EVQLVESGGGLVQPGGSLRLSCAASGFTFSNYWISWVRQAPGKGLEWVAEIRSKSDDSATHYAEAVKGRFTISRDNAKNSLYLQMNSLRAEDTAVYYCTVYFDYGLAIQNYWGQGTLVTVSS VL: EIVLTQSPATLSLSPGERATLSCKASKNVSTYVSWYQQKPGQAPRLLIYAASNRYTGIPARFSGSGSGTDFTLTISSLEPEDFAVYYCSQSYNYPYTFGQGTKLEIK ?
Response: 0.000477

Prompt: Which koff value is on record for G1 variant M33 Fab (Fab, V domains shown, Fab; constant domains as m1) VH: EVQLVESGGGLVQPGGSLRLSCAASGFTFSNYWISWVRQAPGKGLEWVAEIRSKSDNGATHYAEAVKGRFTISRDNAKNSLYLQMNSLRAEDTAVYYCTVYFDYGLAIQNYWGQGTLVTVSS VL: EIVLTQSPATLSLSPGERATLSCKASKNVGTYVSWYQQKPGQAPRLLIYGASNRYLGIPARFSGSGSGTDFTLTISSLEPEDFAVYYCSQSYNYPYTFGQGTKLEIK ?
Response: 0.00075

Prompt: Which koff value is on record for G1 variant M75 Fab (Fab, V domains shown, Fab; constant domains as m1) VH: EVQLVESGGGLVQPGGSLRLSCAASGFTFSNYWISWVRQAPGKGLEWVAEIRSKSDVSATHYAEAVKGRFTISRDNAKNSLYLQMNSLRAEDTAVYYCTVYFDYGLAIQNYWGQGTLVTVSS VL: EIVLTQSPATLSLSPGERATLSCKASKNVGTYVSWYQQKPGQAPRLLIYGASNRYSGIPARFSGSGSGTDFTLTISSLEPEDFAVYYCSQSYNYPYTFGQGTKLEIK ?
Response: 0.00116

Prompt: Which koff value is on record for G1 variant M8 Fab (Fab, V domains shown, Fab; constant domains as m1) VH: EVQLVESGGGLVQPGGSLRLSCAASGFTFSNYWISWVRQAPGKGLEWVAEIRSESDASATHYAEAVKGRFTISRDNAKNSLYLQMNSLRAEDTAVYYCNGYFDYGLAIQNYWGQGTLVTVSS VL: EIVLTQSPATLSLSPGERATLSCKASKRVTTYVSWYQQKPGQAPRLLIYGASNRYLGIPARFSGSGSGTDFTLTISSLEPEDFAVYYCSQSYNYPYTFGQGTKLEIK ?
Response: 9.2e-05
